- Measurement Target: hA2a/CHO (Homo sapiens (Human), UniProt P29274)
- Sequence (P29274 whole entry): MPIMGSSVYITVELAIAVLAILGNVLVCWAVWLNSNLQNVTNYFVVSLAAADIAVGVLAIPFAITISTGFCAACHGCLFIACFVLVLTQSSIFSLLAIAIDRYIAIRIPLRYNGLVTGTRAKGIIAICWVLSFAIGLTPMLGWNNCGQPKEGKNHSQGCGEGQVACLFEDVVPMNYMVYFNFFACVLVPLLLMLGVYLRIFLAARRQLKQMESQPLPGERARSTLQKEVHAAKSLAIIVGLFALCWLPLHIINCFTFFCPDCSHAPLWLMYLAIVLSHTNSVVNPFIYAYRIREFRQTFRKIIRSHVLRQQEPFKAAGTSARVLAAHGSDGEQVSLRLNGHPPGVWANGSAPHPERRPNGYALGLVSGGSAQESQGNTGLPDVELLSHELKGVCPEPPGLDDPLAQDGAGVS
- Method Summary: cAMP inhibition assay in hA2a/CHO cells, 10 μM adenosine
- Assay type: cell-based
- Condition Details: read-out: cAMP & FLIPR IC50 (nM) hA2a
Measurement Label: log10 IC50 (log10 of the value in nM)
Friendly reminder: values = log10 of IC50, unit nM.

-- ask Provide only the value of recorded log10 IC50 for Cc1cnc2ccc(-c3nc(CNC(=O)[C@@H]4CCCO4)c(N)nc3-c3ccc(F)cc3)cn12 [Example 265]
-- reply 0.86

-- ask Provide only the value of recorded log10 IC50 for CO[C@H]1C[C@H](NC(=O)c2nc(-c3ccc4ncc(C)n4c3)c(-c3ncco3)nc2N)C1 [Example 151]
-- reply -0.10

-- ask Provide only the value of recorded log10 IC50 for Cc1cnc2ccc(-c3nc(C(=O)NCCN4CCCC4=O)c(N)nc3-c3ncco3)cn12 [Example 208]
-- reply 0.95

-- ask Provide only the value of recorded log10 IC50 for Cc1cc(-c2nc(C(=O)NCc3ncccc3F)c(N)nc2-c2ccc(F)cc2)cc(C)n1 [Example 1]
-- reply 2.18

-- ask Provide only the value of recorded log10 IC50 for Cc1cnc2ccc(-c3nc(C(=O)NCCn4cccn4)c(N)nc3-c3ncco3)cn12 [Example 158]
-- reply 0.10

-- ask Provide only the value of recorded log10 IC50 for Cn1cnc2ccc(-c3nc(C(=O)NCc4ncccc4OCC(N)=O)c(N)nc3-c3ccc(F)cc3)cc21 [Example 119]
-- reply 0.04

-- ask Provide only the value of recorded log10 IC50 for Cc1cnc2ccc(-c3nc(C(=O)NCC4CCCN(C)C4=O)c(N)nc3-c3ncco3)cn12 (single isomer, unassigned; isomer 1) [Example 263]
-- reply -0.40

-- ask Provide only the value of recorded log10 IC50 for Cn1cc(-c2nc(CNC(=O)c3c(F)cccc3C(F)(F)F)c(N)nc2-c2ccc(F)cc2)ccc1=O [Example 7]
-- reply 2.22

-- ask Provide only the value of recorded log10 IC50 for Cc1cnc2ccc(-c3nc(C(=O)NCC4CCO4)c(N)nc3-c3ncco3)cn12 (single isomer, unassigned) [Example 135]
-- reply 0.36

-- ask Provide only the value of recorded log10 IC50 for Cc1cnc2ccc(-c3nc(C(=O)NCC4CCCCO4)c(N)nc3-c3ncco3)cn12 (single isomer, unassigned; isomer 2) [Example 166]
-- reply -0.62

-- ask Provide only the value of recorded log10 IC50 for Cc1cnc2ccc(-c3nc(C(=O)NCCN(C)c4ccccc4)c(N)nc3-c3ncco3)cn12 [Example 244]
-- reply 1.20

-- ask Provide only the value of recorded log10 IC50 for COc1c(F)cccc1CNC(=O)c1nc(-c2cc(C)nc(C)c2)c(-c2ccc(F)cc2)nc1N [Example 54]
-- reply 2.07

-- ask Provide only the value of recorded log10 IC50 for COCCCNC(=O)c1nc(-c2ccc3ncc(C)n3c2)c(-c2ncco2)nc1N [Example 149]
-- reply 0.18

-- ask Provide only the value of recorded log10 IC50 for Cc1cnc2ccc(-c3nc(C(=O)N[C@@H](C)Cn4nccn4)c(N)nc3-c3ncco3)cn12 [Example 297]
-- reply -0.70

-- ask Provide only the value of recorded log10 IC50 for Cc1cnc2ccc(-c3nc(C(=O)NC[C@H]4CC(F)(F)CN4C)c(N)nc3-c3ncco3)cn12 [Example 162]
-- reply -0.15

-- ask Provide only the value of recorded log10 IC50 for CCNC(=O)c1nc(-c2ccc3ncc(C)n3c2)c(-c2ncco2)nc1N [Example 132]
-- reply 1.11

-- ask Provide only the value of recorded log10 IC50 for Cc1cnc2ccc(-c3nc(C(=O)NCC(C)(C)C(=O)N(C)C)c(N)nc3-c3ncco3)cn12 [Example 281]
-- reply -0.52

-- ask Provide only the value of recorded log10 IC50 for Nc1nc(-c2ncco2)c(-c2ccc(=O)n(CCCO)c2)nc1C(=O)NCc1c(F)cccc1F [Example 102]
-- reply 1.00

-- ask Provide only the value of recorded log10 IC50 for Cc1scnc1CNC(=O)c1nc(-c2ccc(=O)n(C)c2)c(-c2ncco2)nc1N [Example 22]
-- reply 1.78

-- ask Provide only the value of recorded log10 IC50 for Cc1cc(-c2nc(CNC(=O)c3ccccn3)c(N)nc2-c2ccc(F)cc2)cc(C)n1 [Example 8]
-- reply 2.06

-- ask Provide only the value of recorded log10 IC50 for CN1CCCC1CNC(=O)c1nc(-c2ccc3ncc(Cl)n3c2)c(-c2ncco2)nc1N (stereo in doubt) [Cmpd. 209]
-- reply 1.15

-- ask Provide only the value of recorded log10 IC50 for Cc1cnc2ccc(-c3nc(C(=O)NCC4OCC4(C)C)c(N)nc3-c3ncco3)cn12 (single isomer, unassigned; isomer 2) [Example 289]
-- reply 0.28

-- ask Provide only the value of recorded log10 IC50 for Cc1cnc2ccc(-c3nc(C(=O)NCC4CC(C)(C)O4)c(N)nc3-c3ncco3)cn12 (single isomer, unassigned; isomer 1) [Example 260]
-- reply 0.77

-- ask Provide only the value of recorded log10 IC50 for Nc1ccnc(CNC(=O)c2nc(-c3ccc4nccn4c3)c(-c3ncco3)nc2N)n1 [Example 95]
-- reply 1.84

-- ask Provide only the value of recorded log10 IC50 for COc1ccccc1CNC(=O)c1nc(-c2cc(C)nc(Cl)c2)c(-c2ccc(F)cc2)nc1N [Example 68]
-- reply 0.88

-- ask Provide only the value of recorded log10 IC50 for Cc1cnc2ccc(-c3nc(C(=O)NCc4cccc(N5CCN(C)[C@@H](C)C5)n4)c(N)nc3-c3ncco3)cn12 [Example 286]
-- reply 0.51

-- ask Provide only the value of recorded log10 IC50 for Cc1cnc2ccc(-c3nc(C(=O)N[C@H]4C[C@H](N(C)C)C4)c(N)nc3-c3ncco3)cn12 [Example 271-2]
-- reply 1.36

-- ask Provide only the value of recorded log10 IC50 for CC(NC(=O)c1nc(-c2ccc(=O)n(C)c2)c(-c2ncco2)nc1N)c1c(F)cccc1F (stereo not drawn) [Example 20]
-- reply 1.61

-- ask Provide only the value of recorded log10 IC50 for Cc1cnc2ccc(-c3nc(C(=O)NCCN(C)c4ccccn4)c(N)nc3-c3ncco3)cn12 [Example 240]
-- reply 1.26

-- ask Provide only the value of recorded log10 IC50 for CNc1cccc(CNC(=O)c2nc(-c3ccc(=O)n(C)c3)c(-c3ncco3)nc2N)n1 [Example 23]
-- reply 1.40

* * *

- Measurement Target: hA2a/CHO (Homo sapiens (Human), UniProt P29274)
- Method Summary: cAMP inhibition assay in hA2a/CHO cells, 10 μM adenosine;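 further: compounds added to cells 30 min ahead of adenosine, then a further 30 min at 37 °C with adenosine before cAMP detection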
- Assay type: cell-based
- Condition Details: read-out: cAMP & FLIPR IC50 (nM) hA2a
Hi! Just check whether IC50 is below 6 nM. Below gives Condition met, equal or above gives Condition not met.

-- ask State whether 6 nM exceeds IC50 recorded for Cn1cc(-c2nc(C(=O)NCc3ncccc3OC(F)F)c(N)nc2-c2ccc(F)cc2)ccc1=O .
-- reply Condition not met

-- ask State whether 6 nM exceeds IC50 recorded for Cc1cnc2ccc(-c3nc(CNC(=O)C4CCCO4)c(N)nc3-c3ccc(F)cc3)cn12 (stereo in doubt) .
-- reply Condition met

-- ask State whether 6 nM exceeds IC50 recorded for Cc1cnc2ccc(-c3nc(C(=O)NCc4cnccc4N(C)C)c(N)nc3-c3ncco3)cn12 .
-- reply Condition met

-- ask State whether 6 nM exceeds IC50 recorded for Cc1cc(-c2nc(C(=O)NCc3ccccc3Br)c(N)nc2-c2ccc(F)cc2)cc(C)n1 .
-- reply Condition not met

-- ask State whether 6 nM exceeds IC50 recorded for Cc1cnc2ccc(-c3nc(C(=O)NCC4(N(C)C)CC4)c(N)nc3-c3ccc(F)cc3)cn12 .
-- reply Condition not met

-- ask State whether 6 nM exceeds IC50 recorded for Cc1cnc2ccc(-c3nc(C(=O)NCc4c(F)cccc4F)c(N)nc3N3CCOCC3)cn12 .
-- reply Condition met

-- ask State whether 6 nM exceeds IC50 recorded for Cc1cnc2ccc(-c3nc(C(=O)NCCOC(F)(F)F)c(N)nc3-c3ncco3)cn12 .
-- reply Condition met

-- ask State whether 6 nM exceeds IC50 recorded for Cc1cnc2ccc(-c3nc(C(=O)NC[C@H]4CCOC4)c(N)nc3-c3ncco3)cn12 .
-- reply Condition met

-- ask State whether 6 nM exceeds IC50 recorded for CN(C)c1cccnc1CNC(=O)c1nc(-c2ccc(=O)n(C)c2)c(-c2ncco2)nc1N .
-- reply Condition met

-- ask State whether 6 nM exceeds IC50 recorded for COc1cccc(CNC(=O)c2nc(-c3ccc(=O)n(C)c3)c(-c3ncco3)nc2N)n1 .
-- reply Condition not met

-- ask State whether 6 nM exceeds IC50 recorded for Cc1cnc2ccc(-c3nc(C(=O)NCc4ncccc4OCCO)c(N)nc3-c3ncco3)cn12 .
-- reply Condition met

-- ask State whether 6 nM exceeds IC50 recorded for Cc1cnc2ccc(-c3nc(CNC(=O)[C@H]4CCCN4C)c(N)nc3-c3ccc(F)c(F)c3)cn12 .
-- reply Condition met

-- ask State whether 6 nM exceeds IC50 recorded for Cn1cnc2ccc(-c3nc(C(=O)NCc4ncccc4F)c(N)nc3-c3ncco3)cc21 .
-- reply Condition met

-- ask State whether 6 nM exceeds IC50 recorded for COc1ccccc1CNC(=O)c1nc(-c2cc(C)nc(N)c2)c(-c2ccc(F)cc2)nc1N .
-- reply Condition met

-- ask State whether 6 nM exceeds IC50 recorded for Cn1cc(-c2nc(C(=O)NCc3cccc(N4CCCC4)n3)c(N)nc2-c2ncco2)ccc1=O .
-- reply Condition not met
